Record set: IC50 | ERAP1 (Homo sapiens) | literature, multiple sources.

// worked examples, IC50 included
{"columns": ["COMPOUND", "IC50"],
 "data": [
  ["O=C(O)c1ccc(C2CC2)c(S(=O)(=O)Nc2cc(-n3cnnn3)c(F)cc2-c2ccccn2)c1", "< 500 nM"],
  ["COc1ccc(C(=O)O)cc1S(=O)(=O)Nc1cc(C(F)(F)F)ccc1N1CCC(OC)CC1", "< 500 nM"],
  ["N#Cc1ccc(-c2cccnn2)c(NS(=O)(=O)c2cc(C(=O)O)ccc2C2CC2)c1", "< 500 nM"],
  ["COc1ccc(C(=O)O)cc1S(=O)(=O)Nc1cc(C#N)ccc1-n1cccc1", "< 500 nM"],
  ["COc1ccc(C(=O)O)cc1S(=O)(=O)Nc1cc(C(F)(F)F)ccc1N1CC2(CCCO2)C1", "< 5000 nM"]
]}

Attention now shifts to the item below.
# value lookup — system ERAP1 (Homo sapiens), readout IC50, item CO[C@@H]1CCC[C@@H]1Oc1cc(Cl)c(C#N)cc1NS(=O)(=O)c1cc(C(=O)O)ccc1C1CC1 (single isomer, unassigned) < 1 nM

---

pIC50: −log10 of the molar value.
Record set: pIC50 | ERAP1 (Homo sapiens) | literature, multiple sources.

// worked examples, pIC50 included
{"columns": ["COMPOUND", "pIC50"],
 "data": [
  ["N#Cc1cc(NS(=O)(=O)c2cc(C(=O)O)ccc2C2CC2)c(O[C@@H]2CCC[C@@H]2F)cc1Cl", "> 9.00"],
  ["COc1ccc(-c2ccc(C(F)(F)F)cc2NS(=O)(=O)c2cc(C(=O)O)ccc2OC)cc1", "< 5.30"],
  ["N#Cc1cc(NS(=O)(=O)c2cc(C(=O)O)ccc2C2CC2)c(OC2CCC2C2CC2)cc1Cl (single isomer, unassigned)", "8.30 to 9.00"],
  ["O=C(O)c1ccc(C2CC2)c(S(=O)(=O)Nc2cc(-n3cnnn3)c(Cl)cc2-n2cccc2)c1", "> 6.30"],
  ["CS(=O)(=O)c1ccc(N2CCC[C@@H](F)C2)c(NS(=O)(=O)c2cc(C(=O)O)ccc2C2CC2)c1", "> 6.30"]
]}

Given the compound NS(=O)(=O)c1ccc(N2CCCCC2)c(NS(=O)(=O)c2cc(C(=O)O)ccc2C2CC2)c1 , what is its reported pIC50? > 6.30

Given the compound CC1CCCC1Oc1cc(Cl)c(C#N)cc1NS(=O)(=O)c1cc(C(=O)O)ccc1C1CC1 (single isomer, unassigned) , what is its reported pIC50? > 9.00

Given the compound Cc1oncc1-c1cc(NS(=O)(=O)c2cc(C(=O)O)ccc2C2CC2)c(OC2CCCC2)cc1F , what is its reported pIC50? > 9.00

Given the compound CC1(C)CC(C)(C)C1Oc1cc(Cl)c(C#N)cc1NS(=O)(=O)c1cc(C(=O)O)ccc1C1CC1 , what is its reported pIC50? < 8.30

Given the compound O=C(O)c1ccc(C2CC2)c(S(=O)(=O)Nc2cc(-c3ccns3)c(F)cc2-n2cccc2)c1 , what is its reported pIC50? > 6.30

Given the compound COc1ccc(C(=O)O)cc1S(=O)(=O)Nc1cc(C#N)ccc1N1CCC[C@@H](O)C1 , what is its reported pIC50? > 6.30

Given the compound CC1CCC1Oc1cc(Cl)c(C#N)cc1NS(=O)(=O)c1cc(C(=O)O)ccc1C1CC1 (single isomer, unassigned) , what is its reported pIC50? > 9.00

Given the compound Cc1ccc(-c2ccc(C(F)(F)F)cc2NS(=O)(=O)c2cc(C(=O)O)ccc2C2CC2)s1 , what is its reported pIC50? > 6.30

Given the compound CCc1ccc(C(=O)O)cc1S(=O)(=O)Nc1cc(-c2ccns2)ccc1N1CCCCC1 , what is its reported pIC50? > 6.30

Given the compound CS(=O)(=O)c1cc(NS(=O)(=O)c2cc(C(=O)O)ccc2C2CC2)c(N2CCCCC2)cc1Cl , what is its reported pIC50? > 6.30

---

Record set: IC50 | ERAP1 (Homo sapiens, UniProt Q9NZ08) | literature, multiple sources.

// worked examples, IC50 included
{"columns": ["SAMPLE_SMILES", "MEASURED_PROPERTY", "RESULT"],
 "data": [
  ["CC1(C)CCC[C@H]1Oc1cc(F)c(-n2cnnn2)cc1NS(=O)(=O)c1cc(C(=O)O)ccc1C1CC1", "IC50", "< 1 nM"],
  ["CCc1ccc(C(=O)O)cc1S(=O)(=O)Nc1cc(C(F)(F)F)ccc1-c1cccnc1", "IC50", "< 500 nM"],
  ["COC1(COc2cc(Cl)c(C#N)cc2NS(=O)(=O)c2cc(C(=O)O)ccc2C2CC2)CCC1", "IC50", "< 1 nM"]
]}

Given the compound CCc1ccc(C(=O)O)cc1S(=O)(=O)Nc1cc(C(F)(F)F)ccc1N1CC(O)C1 , what is its reported IC50? > 5000 nM

---

pIC50: −log10 of the molar value.
Record set: pIC50 | UniProtKB Q9NZ08 | literature, multiple sources.

{"columns": ["COMPOUND", "EXPERIMENTAL_TARGET", "pIC50"],
 "data": [
  ["CCc1ccc(C(=O)O)cc1S(=O)(=O)Nc1cc(-c2c(C)noc2C)ccc1N1CCCCC1", "UniProtKB Q9NZ08", "> 6.30"],
  ["N#Cc1cc(NS(=O)(=O)c2cc(C(=O)O)ccc2C2CC2)c(OC2CCC23CCC3)cc1Cl (single isomer, unassigned)", "UniProtKB Q9NZ08", "> 9.00"],
  ["CS(=O)(=O)c1ccc(-c2ccc(C3CC3)s2)c(NS(=O)(=O)c2cc(C(=O)O)ccc2C2CC2)c1", "UniProtKB Q9NZ08", "> 6.30"],
  ["CCc1ccc(C(=O)O)cc1S(=O)(=O)Nc1cc(C(F)(F)F)ccc1-n1cccn1", "UniProtKB Q9NZ08", "> 6.30"]
]}

Attention now shifts to the item below.
# value lookup — system UniProtKB Q9NZ08, readout pIC50, item N#Cc1ccc(N2CCCCC2)c(NS(=O)(=O)c2cc(C(=O)O)ccc2C2CC2)c1 > 6.30

---

Record set: IC50 | ERAP1 (Homo sapiens, UniProt Q9NZ08) | literature, multiple sources.

// worked examples, IC50 included
{"columns": ["COMPOUND", "IC50"],
 "data": [
  ["CS(=O)(=O)c1cc(NS(=O)(=O)c2cc(C(=O)O)ccc2C2CC2)c(N2CCCCC2)cc1F", "< 500 nM"],
  ["N#Cc1cc(NS(=O)(=O)c2cc(C(=O)O)ccc2C2CC2)c(OC2CCCC23CC3)cc1Cl (stereo not shown)", "< 1 nM"],
  ["O=C(O)c1ccc(-n2cccn2)c(S(=O)(=O)Nc2cc(C(F)(F)F)ccc2N2CCCCC2)c1", "< 5000 nM"],
  ["COc1ccc(C(=O)O)cc1S(=O)(=O)Nc1cc(C(F)(F)F)ccc1-c1ccco1", "< 500 nM"]
]}

# value lookup — system ERAP1 (Homo sapiens, UniProt Q9NZ08), readout IC50, item O=C(O)c1ccc(C2CC2)c(S(=O)(=O)Nc2cc(C(F)(F)F)ccc2-c2cccs2)c1 < 500 nM

# value lookup — system ERAP1 (Homo sapiens, UniProt Q9NZ08), readout IC50, item N#Cc1cc(NS(=O)(=O)c2c(C3CC3)ccc(C(=O)O)c2F)c(OC2CCCC2)cc1Cl > 5 nM

# value lookup — system ERAP1 (Homo sapiens, UniProt Q9NZ08), readout IC50, item COc1ccc(C(=O)O)cc1S(=O)(=O)Nc1cc(-c2nnn[nH]2)ccc1-c1cccs1 < 500 nM

---

pIC50: −log10 of the molar value.
Record set: pIC50 | ERAP1 (Homo sapiens, UniProt Q9NZ08) | literature, multiple sources.

// worked examples, pIC50 included
{"columns": ["COMPOUND", "pIC50"],
 "data": [
  ["CCc1ccc(C(=O)O)cc1S(=O)(=O)Nc1cc(S(C)(=O)=O)ccc1N1CCC(F)(F)CC1", "> 6.30"],
  ["COc1ccc(C(=O)O)cc1S(=O)(=O)Nc1cc(C(F)(F)F)ccc1N1C[C@H]2CCCC[C@H]2C1", "> 5.30"],
  ["N#Cc1cc(NS(=O)(=O)c2cc(C(=O)O)ccc2C2CC2)c(OC2CCC23COC3)cc1Cl (stereo not shown)", "> 9.00"],
  ["N#Cc1cc(NS(=O)(=O)c2cc(C(=O)O)ccc2C2CC2)c(-c2ccc(Cl)s2)cc1F", "> 6.30"]
]}

# value lookup — system ERAP1 (Homo sapiens, UniProt Q9NZ08), readout pIC50, item N#Cc1cc(NS(=O)(=O)c2cc(C(=O)O)cc(F)c2C2CC2)c(OC2CCCC2)cc1Cl > 9.00

# value lookup — system ERAP1 (Homo sapiens, UniProt Q9NZ08), readout pIC50, item O=C(O)c1ccc(C2CC2)c(S(=O)(=O)Nc2cc(-n3cnnn3)c(Cl)cc2-c2ccccn2)c1 > 6.30

# value lookup — system ERAP1 (Homo sapiens, UniProt Q9NZ08), readout pIC50, item O=C(O)c1ccc(C2CC2)c(S(=O)(=O)Nc2cc(-c3ccns3)c(Cl)cc2OC2CCC2)c1 > 9.00

# value lookup — system ERAP1 (Homo sapiens, UniProt Q9NZ08), readout pIC50, item COc1ccc(C(=O)O)cc1S(=O)(=O)Nc1cc(C(F)F)ccc1N1CCCCC1 > 6.30

# value lookup — system ERAP1 (Homo sapiens, UniProt Q9NZ08), readout pIC50, item N#Cc1ccc(-c2cccnc2)c(NS(=O)(=O)c2cc(C(=O)O)ccc2C2CC2)c1 > 6.30

# value lookup — system ERAP1 (Homo sapiens, UniProt Q9NZ08), readout pIC50, item CCc1ccc(C(=O)O)cc1S(=O)(=O)Nc1cc(-c2cnoc2C)c(C)cc1N1CCCCC1 > 6.30

# value lookup — system ERAP1 (Homo sapiens, UniProt Q9NZ08), readout pIC50, item N#Cc1cc(NS(=O)(=O)c2cc(C(=O)O)ccc2C2CC2)c(O[C@H]2C[C@@H](F)C2)cc1Cl > 9.00

# value lookup — system ERAP1 (Homo sapiens, UniProt Q9NZ08), readout pIC50, item COc1ccc(C(=O)O)cc1S(=O)(=O)Nc1cc(-n2cnnn2)ccc1N1CCC[C@H](O)C1 > 6.30

# value lookup — system ERAP1 (Homo sapiens, UniProt Q9NZ08), readout pIC50, item N#Cc1ccc(-c2ccccn2)c(NS(=O)(=O)c2cc(C(=O)O)ccc2C#N)c1 < 5.30

# value lookup — system ERAP1 (Homo sapiens, UniProt Q9NZ08), readout pIC50, item CCc1ccc(C(=O)O)cc1S(=O)(=O)Nc1cc(C(F)(F)F)ccc1N1CCC(F)(F)CC1 > 6.30

# value lookup — system ERAP1 (Homo sapiens, UniProt Q9NZ08), readout pIC50, item O=C(O)c1cc(S(=O)(=O)Nc2cc(C(F)(F)F)ccc2N2CCCCC2)ccc1Cl > 5.30

# value lookup — system ERAP1 (Homo sapiens, UniProt Q9NZ08), readout pIC50, item COc1ccc(C(=O)O)cc1S(=O)(=O)Nc1cc(C(F)(F)F)ccc1-c1ccccc1 > 6.30

# value lookup — system ERAP1 (Homo sapiens, UniProt Q9NZ08), readout pIC50, item COc1ccc(C(=O)O)cc1S(=O)(=O)Nc1cc(C(F)(F)F)ccc1N1C[C@H]2CN(C)C[C@H]2C1 < 5.30

# value lookup — system ERAP1 (Homo sapiens, UniProt Q9NZ08), readout pIC50, item COc1ccc(C(=O)O)cc1S(=O)(=O)Nc1cc(C(F)(F)F)ccc1N1CC[C@H](O)C1 > 5.30

# value lookup — system ERAP1 (Homo sapiens, UniProt Q9NZ08), readout pIC50, item COc1ccc(C(=O)O)cc1S(=O)(=O)Nc1cc(C(F)(F)F)ccc1N1CCN2CCC[C@@H]2C1 > 5.30

# value lookup — system ERAP1 (Homo sapiens, UniProt Q9NZ08), readout pIC50, item CCc1ccc(C(=O)O)cc1S(=O)(=O)Nc1cc(-c2ncco2)ccc1N1CCCCC1 > 6.30
